system: HOP-92 NSCLC; assay: NCI tumour cell line growth inhibition, 48 h

{"compound": "Cc1nc(C(N)=S)sc1C(=O)CC(=O)C(=O)Nc1nc2ccccc2[nH]1", "TGI": "> 100 µM"}
{"compound": "O=c1oc(=O)c2oc3ccccc3oc1=2", "TGI": "> 100 µM"}
{"compound": "CCOC(=O)/C(C#N)=C1/C(O)=C(C(=O)OC)C(C(=O)OC)=C1C(=O)OC", "TGI": "> 100 µM"}
{"compound": "OC1C2CCC1C1C3C=CC(C3)C21 (stereo unspecified)", "TGI": "> 100 µM"}
{"compound": "CC(=O)C1(N=Nc2ccc(S(N)(=O)=O)cc2)CCOC1=O (stereo unspecified)", "TGI": "> 100 µM"}
{"compound": "COC(=O)/C=C/c1cn(C(C)=O)c2ccc(Br)cc12", "TGI": "> 60.7 µM"}

* * *

test system: HS 578T breast; assay: NCI tumour cell line growth inhibition, 48 h
Listing of entries alongside the reported TGI.
metric: TGI (µM)

{"compound": "CCOP(=O)(OCC)[C@H]1OC(C)(C)O[C@@H]1CO", "metric": "TGI", "qualifier-symbol": ">", "observed": 100}
{"compound": "CCN(CC)CCCC(C)N=c1cc(Nc2cc(=NC(C)CCCN(CC)CC)c3cc(OC)ccc3o2)oc2ccc(OC)cc12 (stereo not drawn)", "metric": "TGI", "qualifier-symbol": "=", "observed": 14.8}
{"compound": "Cc1ccc(/C=C2\\Cc3cccc(C)c3C2=O)c(C(=O)O)c1", "metric": "TGI", "qualifier-symbol": ">", "observed": 100}
{"compound": "CN(C)CCCCN1c2ccccc2Sc2ccc(C(=O)c3ccccc3)cc21", "metric": "TGI", "qualifier-symbol": "=", "observed": 9.69}
{"compound": "COc1cc(OC)c(NC(=O)c2cc3ccccc3cc2O)cc1Cl", "metric": "TGI", "qualifier-symbol": "=", "observed": 8.95}
{"compound": "CCC1C(=O)C(O)[C@H]2[C@@H]3C(O)CC4=CC(=O)CC[C@]4(C)[C@H]3CC[C@]12C (stereo partly drawn)", "metric": "TGI", "qualifier-symbol": ">", "observed": 50}
{"compound": "CC(=O)O[C@H]1C(=O)[C@@]2(C)[C@H]([C@H](OC(=O)c3ccccc3)[C@]3(O)C[C@H](OC(=O)[C@H](O)[C@@H](NC(=O)C(C)(C)C)c4ccccc4)C(C)=C1C3(C)C)[C@]1(OC(C)=O)CO[C@@H]1C[C@@H]2O", "metric": "TGI", "qualifier-symbol": "=", "observed": 0.389}
{"compound": "CN(CC(=O)O)c1ncc2c(n1)-c1ccccc1OC2", "metric": "TGI", "qualifier-symbol": ">", "observed": 100}
{"compound": "CCOC(=O)C(C)(C)C(O)C(C)C (stereo not drawn)", "metric": "TGI", "qualifier-symbol": ">", "observed": 100}
{"compound": "O=C(NO)c1ccc(Cn2c(=O)n(-c3ccccc3F)c(=O)c3ccccc32)cc1", "metric": "TGI", "qualifier-symbol": "=", "observed": 11.9}
{"compound": "N#CC1=C(N)NC(=S)NC12Nc1ccccc1N2", "metric": "TGI", "qualifier-symbol": ">", "observed": 100}
{"compound": "CC(=O)OCCOc1cc2c([nH]c3ccccc32)c(C)c2cccc1-2", "metric": "TGI", "qualifier-symbol": ">", "observed": 100}
{"compound": "O=c1oc2ccc(-n3c(=O)c4ccccc4c4ccccc4c3=O)cc2c2ccccc12", "metric": "TGI", "qualifier-symbol": "=", "observed": 81}
{"compound": "COC(=O)/C=C(\\S/C(=N\\n1cc(C(=O)OC)c(C(=O)OC)c1-c1ccc(C)cc1)c1ccc(C)cc1)C(=O)OC", "metric": "TGI", "qualifier-symbol": "=", "observed": 62.8}
{"compound": "Clc1ccc(-c2ccc(-c3nn4c(CNc5ccccc5)nnc4s3)o2)c(Cl)c1", "metric": "TGI", "qualifier-symbol": ">", "observed": 100}
{"compound": "C/C(=C\\COc1c2c(cc3c1CCO3)OC1(C=C2)OC(CC/C(C)=C/COc2c3ccoc3cc3oc(=O)ccc23)C(C)(C)O1)CCC(O)C(C)(C)O (stereo not drawn)", "metric": "TGI", "qualifier-symbol": ">", "observed": 100}
{"compound": "C[C@H](CCCNCCCNCCCN)[C@H]1CC[C@H]2[C@@H]3[C@H](OCCCN)C[C@H]4C[C@H](OCCCN)CC[C@]4(C)[C@H]3C[C@H](OCCCN)[C@]12C", "metric": "TGI", "qualifier-symbol": "=", "observed": 12.5}
{"compound": "C=CCNS(=O)(=O)c1ncnc2nc[nH]c12", "metric": "TGI", "qualifier-symbol": ">", "observed": 100}

* * *

Reported values of TGI for individual entries
system: SF-295 CNS; experiment: NCI tumour cell line growth inhibition, 48 h

{"compound": "Cc1ccc(NC2=N/C(=C/c3ccccc3)C(Cl)=N2)cc1", "TGI": "> 100 µM"}
{"compound": "O=C1C2CN(Cc3ccccc3)CC1CN(CC1CC1)C2", "TGI": "> 100 µM"}
{"compound": "CCC[CH2][Sn]1([CH2]CCC)[O]C(=O)c2ccc(C)cc2[O]1", "TGI": "2.52 µM"}
{"compound": "CNc1nnc(CNc2ccc(-c3nnc(NC)n3N)cc2)n1N", "TGI": "> 100 µM"}
{"compound": "COc1c(C)cc2c(c1O)C1NC(C2)[C@H](O)N2C3COC(=O)[C@@]4(CS[C@@H](c5c(OC(C)=O)c(C)c6c(c53)OCO6)C12)NCCC1=C4NC2C=CC=CC12 (stereo not given in full)", "TGI": "< 0.01 µM"}

* * *

tested on: BT-549 breast; test: NCI tumour cell line growth inhibition, 48 h; in the data active = GI50 below about 0.43 µM; inactive = the rest
Possible outcomes: class 1 = active, class 0 = inactive

{"molecule": "C[C@H]1[C@H]2[C@H]3CC[C@@H]4[C@@]5(C)C/C(=C/c6cccnc6)C(=O)C(C)(C)[C@@H]5CC[C@@]4(C)[C@]3(C)CC[C@]23CO[C@]1(C)[C@@H](C(=O)/C=C\\c1cccnc1)C3", "category-label": "class 0"}
{"molecule": "CC[C@@]1(O)C(=O)OCc2c1cc1n(c2=O)Cc2c-1nc1cc3c(cc1c2C)OCO3", "category-label": "class 1"}
{"molecule": "Nc1c(C(=O)c2ccc(CCCN3CCOCC3)cc2)cnn1-c1ccc(F)cc1", "category-label": "class 0"}
{"molecule": "O=C(CCC(C(=O)c1ccccc1)c1ccccc1)c1ccccc1 (centres undefined)", "category-label": "class 0"}

* * *

Here the recorded TGI is given for each entry.
tested on: RXF-631 renal; assay: NCI tumour cell line growth inhibition, 48 h

{"compound": "Brc1cc2c(cc1C1SCCS1)OCO2", "TGI": "> 100 µM"}
{"compound": "O=C(COC(=O)c1cccc2c(=O)c3ccccc3[nH]c12)Nc1ccccc1", "TGI": "99 µM"}
{"compound": "COc1cc2c(cc1OC)C(=O)Cc1ccc(OC)c(OC)c1CN(C)CC2", "TGI": "> 100 µM"}
{"compound": "C[n+]1ccc(-c2c3nc(c(-c4cc[n+](C)cc4)c4ccc([n-]4)c(-c4cc[n+](C)cc4)c4nc(c(-c5cc[n+](C)cc5)c5ccc2[n-]5)C=C4)C=C3)cc1.[I-].[Zn+2]", "TGI": "46.8 µM"}
{"compound": "CCC[CH2][Sn]1([CH2]CCC)[O]C(=O)c2ccc(C)cc2[O]1", "TGI": "0.32 µM"}
{"compound": "COc1ccc2nc3ccccc3c(NCCCN(C)CCCl)c2c1", "TGI": "2.15 µM"}
{"compound": "COc1ccc2[nH]cc(CCNC(=O)[C@](O)(Cc3cn(C)c4ccccc34)[C@@]3(O)OCC(O)C3O)c2c1 (stereo not given in full)", "TGI": "> 100 µM"}
{"compound": "COc1ccc(OC(C(=O)O)c2ccccc2)c2c1CCCC2=O (stereo not given)", "TGI": "> 100 µM"}
{"compound": "Cc1cc2c(c3oc(C4(C)OC4C4OC4C)cc(=O)c13)C(=O)c1c(O)c(C3CC(C)(N(C)C)C(O)C(C)O3)cc(C3CC(N(C)C)C(O)C(C)O3)c1C2=O (stereo not given)", "TGI": "0.123 µM"}
{"compound": "CCCCCCCC(=O)OCC1OC(OC)C(NC(=O)N(CCCl)N=O)C(O)C1O (stereo not given)", "TGI": "19 µM"}

* * *

system: DU-145 prostate; test: NCI tumour cell line growth inhibition, 48 h

{"molecule": "COc1cc(/C=C/C(=O)CC(=O)/C=C/c2ccc(O)c(OC)c2)ccc1O", "qualifier-symbol": "=", "TGI (µM)": 29.7}
{"molecule": "Cc1cc(C)nc(SCCc2cccc[n+]2C)n1", "qualifier-symbol": ">", "TGI (µM)": 100}
{"molecule": "OCC1OC(n2cnc3c(Cl)nc(Cl)cc32)C(O)C1O (stereo unspecified)", "qualifier-symbol": ">", "TGI (µM)": 100}
{"molecule": "CCc1ccc2c(c1)N(CCO)C1=C(C(=O)OC1)C2c1cccc(Cl)c1 (stereo unspecified)", "qualifier-symbol": "=", "TGI (µM)": 13.5}
{"molecule": "C1=NCCNCCNCCN=Cc2ccccc2OCc2cccc(n2)COc2ccccc21", "qualifier-symbol": ">", "TGI (µM)": 100}
{"molecule": "COc1ccc(/C(CC2OC(=O)c3ccccc32)=N\\NC(=O)C[N+](C)(C)C)cc1 (stereo unspecified)", "qualifier-symbol": "=", "TGI (µM)": 63.4}
{"molecule": "O=S(=O)(Nc1cc(Cl)ccc1Cl)c1ccc(-c2cnc(C3CC3)o2)cc1", "qualifier-symbol": ">", "TGI (µM)": 100}
{"molecule": "CN1CC(CNC(=O)OCc2ccccc2)CC2c3cccc4c3c(cn4C)CC21 (stereo unspecified)", "qualifier-symbol": "=", "TGI (µM)": 14.4}
{"molecule": "O=C1c2ccccc2-c2c1c1c(O)cccc1n2-c1ccccc1", "qualifier-symbol": ">", "TGI (µM)": 100}
{"molecule": "COc1cc(O)c2c(c1)C(=O)c1cc3c(c(O)c1C2=O)C(OC1OC(C)C(O)C(O)C1OC)C(OC)C(C)(O)C3=O (stereo unspecified)", "qualifier-symbol": "=", "TGI (µM)": 11.5}
{"molecule": "N#Cc1nc(C(CO)N(Cc2ccccc2)C(=O)O)oc1N (stereo unspecified)", "qualifier-symbol": ">", "TGI (µM)": 100}
